B1: TPR 5TU (parent)
chain: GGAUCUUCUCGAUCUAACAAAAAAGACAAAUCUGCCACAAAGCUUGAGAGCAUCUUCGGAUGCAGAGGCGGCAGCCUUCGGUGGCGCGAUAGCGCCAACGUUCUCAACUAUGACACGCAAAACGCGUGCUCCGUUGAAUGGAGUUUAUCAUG

variants of: B1; test: polymerase ribozyme fitness, log enrichment relative to wild type (log ratio); higher = more active; in vitro selection for triplet polymerase activity
Fewer inactive variants are shown than the library holds.
Please enter rule met where polymerase ribozyme fitness (log ratio) is greater than or equal to -2, and rule not met where it is lower.

Some entries whose results are on file:
| Mutation key | Label |
| --- | --- |
| A12U A28U U55G A66C G74C G80C C85A C87U C96U | rule not met |
| U15G C51U A98U A115G G136A | rule not met |
| G68A C76A G86A U102C G124C G152A | rule not met |

Problem: Could you verify whether the entry A40C U56A G128C shows polymerase ribozyme fitness (log ratio) of no less than -2?
Result: rule not met

Problem: # iterate: A37G C38A G48U
Result: rule not met

Problem: # iterate: A22U U56A G84A G136C
Result: rule not met

Problem: # iterate: U4A G11C A41U G50C G58A G59U U82C C87U G92U G140A
Result: rule not met

Problem: # iterate: A22U G46C A73U
Result: rule not met

Problem: # iterate: A21C A41U C57U A119U U134A U144A
Result: rule not met

Problem: # iterate: C114U C118G
Result: rule not met

Problem: # iterate: C63U G65A A73U A115G U134G
Result: rule not met

Problem: # iterate: G42C G48A C103A U144C
Result: rule not met

Problem: # iterate: A22G C27U A47U U56G C57G U77A C93A G143A
Result: rule not met

Problem: # iterate: C5G C85U A142U
Result: rule met

Problem: # iterate: C76A A91U
Result: rule not met

Problem: # iterate: A40C A60G U139C U144C
Result: rule not met
